Target: human c-Met (HGFR), full length, on the cell surface (human, UniProt P08581 25-1390)
Sequence (P08581 25-1390 limits assumed): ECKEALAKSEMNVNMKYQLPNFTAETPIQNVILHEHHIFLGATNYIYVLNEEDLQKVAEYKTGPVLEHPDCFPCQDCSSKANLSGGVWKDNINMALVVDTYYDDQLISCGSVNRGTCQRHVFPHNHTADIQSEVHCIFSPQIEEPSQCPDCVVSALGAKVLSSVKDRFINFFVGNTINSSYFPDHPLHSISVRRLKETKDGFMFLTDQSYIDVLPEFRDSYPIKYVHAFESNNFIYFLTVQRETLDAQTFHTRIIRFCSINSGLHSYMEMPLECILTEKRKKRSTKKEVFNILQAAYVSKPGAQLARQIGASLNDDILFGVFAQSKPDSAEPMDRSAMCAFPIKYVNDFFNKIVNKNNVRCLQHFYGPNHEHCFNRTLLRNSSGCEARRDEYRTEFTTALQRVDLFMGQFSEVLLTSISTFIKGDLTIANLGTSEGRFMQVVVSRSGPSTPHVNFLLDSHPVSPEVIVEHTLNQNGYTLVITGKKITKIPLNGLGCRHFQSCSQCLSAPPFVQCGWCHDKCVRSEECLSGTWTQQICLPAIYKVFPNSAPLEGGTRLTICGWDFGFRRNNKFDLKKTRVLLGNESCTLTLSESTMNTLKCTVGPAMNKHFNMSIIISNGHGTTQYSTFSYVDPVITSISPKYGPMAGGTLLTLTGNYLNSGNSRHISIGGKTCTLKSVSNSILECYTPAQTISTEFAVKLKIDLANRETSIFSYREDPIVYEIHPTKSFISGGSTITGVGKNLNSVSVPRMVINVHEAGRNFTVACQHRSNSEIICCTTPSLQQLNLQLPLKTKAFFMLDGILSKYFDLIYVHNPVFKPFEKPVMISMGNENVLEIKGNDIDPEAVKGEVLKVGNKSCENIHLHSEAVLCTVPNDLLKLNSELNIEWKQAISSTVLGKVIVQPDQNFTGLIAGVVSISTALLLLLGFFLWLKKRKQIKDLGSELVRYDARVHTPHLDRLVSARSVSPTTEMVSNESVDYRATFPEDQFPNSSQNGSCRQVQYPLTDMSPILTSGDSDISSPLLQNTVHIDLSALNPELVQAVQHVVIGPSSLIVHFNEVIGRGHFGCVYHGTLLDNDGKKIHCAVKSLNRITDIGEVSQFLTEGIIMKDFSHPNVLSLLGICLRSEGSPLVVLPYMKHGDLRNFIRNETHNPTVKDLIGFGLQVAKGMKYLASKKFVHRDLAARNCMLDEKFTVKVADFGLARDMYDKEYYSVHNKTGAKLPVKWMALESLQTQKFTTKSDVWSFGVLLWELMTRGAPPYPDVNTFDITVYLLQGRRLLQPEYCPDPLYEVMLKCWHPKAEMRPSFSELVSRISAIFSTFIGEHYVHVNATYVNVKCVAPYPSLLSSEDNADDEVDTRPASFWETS
Test: cell-based or functional assay
In this section, each of the binders is paired with its reported IC50, in vitro cytotoxicity, PC-3, +HGF.

INSERT INTO assay_data (binder, result) VALUES
  ('ADC1 (antibody, human IgG1, kappa, V domains shown, vc-seco-DUBA linker-drug on the engineered cysteine at HC position 41 (Kabat); DAR 1.5) VH: EVQLQQSGPELLKPGASVKMSCKASGYIFTDYFMNWVKQSCGKSLEWIGRVNPKNGDITYNQKFRGKATLTVDKSLTTAYMQLNSLTSEDSAVYFCAYDGYYDGMDFWGQGTSVTVSS VL: ENVLTQSPAIMSASPGEKVTMTCRANSSVSSNFLHWYQQKSGASPKLWISSTSNLAFGVPPRFSGSGSGTSYSLTISSVEAEDAATYYCHQYSGHPFTFGSGTKLEIKR', '0.185 nM'),
  ('ADC2b (antibody, human IgG1, kappa, V domains shown, vc-seco-DUBA linker-drug on the engineered cysteine at HC position 41 (Kabat); DAR 1.7) VH: QVQLVQSGAEVKKPGSSVKVSCKASGYVFPDYEMHWVRQACGQGLEWMGAFDPETGDTTYNQNFKGRVTITADKSTSTAYMELSSLRSEDTAVYYCARDYKYLYYYAMDNWGQGTTVTVSS VL: DIQMTQSPSSLSASVGDRVTITCTASSSITSSYLHWYQQKPGKAPKLLIYSTTNLASGVPSRFSGSGSGTDFTLTISSLQPEDFATYYCHQYRRSPLTFGGGTKLEIKR', '~2.46 nM'),
  ('ADC2c (antibody, human IgG1, kappa, V domains shown, vc-seco-DUBA linker-drug on the engineered cysteine at HC position 41 (Kabat); DAR 1.7) VH: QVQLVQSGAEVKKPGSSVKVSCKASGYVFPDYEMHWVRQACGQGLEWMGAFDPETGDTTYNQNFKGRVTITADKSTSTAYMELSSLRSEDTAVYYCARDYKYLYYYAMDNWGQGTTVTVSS VL: EIVLTQSPSLLSASIGDRVTIPCTASSSITSSYLHWYQQKPGKAPKLLIYSTTNLASGVPSRFSGSGSGTEFTLTISSLQPEDFATYYCHQYRRSPLTFGGGTKLEIKR', '~1.97 nM');

# ---- query binder ----
## Input Input ADC3e (antibody, human IgG1, kappa, V domains shown, vc-seco-DUBA linker-drug on the engineered cysteine at HC position 41 (Kabat); DAR 1.9) VH: QVQLQESGAEVKKPGASVKVSCKASGYTFTDYYLNWVRQACGQGLEWMGLIFPGNDKTEYSEKFKGRVTMTRDTSTSTVYMELSSLRSEDTAVYYCSGGDYGGFVYWGQGTLVTVSS VL: DIQMTQSPSSLSASVGDRVTITCGASENIYGALNWYQQKPGKAPKLLIYGATNLADGVPSRFSGSGSGTDFTLTISSLQPEDVATYYCQNVLSSPLTFGSGTKLEIKR , output reported IC50, in vitro cytotoxicity, PC-3, +HGF.
## Output ~2.86 nM
